- Test system: DMS-273
- experiment_description: NCI tumour cell line growth inhibition, 48 h
The source made the active and inactive calls. No stated cut-off is given here; in the data, active = GI50 up to about 1.1 µM and inactive = higher.
measure_name: GI50

>  <compound>
CN(C)/C(F)=P\C(F)(F)F (stereo not drawn)

>  <assay_result>
> 100 µM (inactive)

$$$$
>  <compound>
Cc1ccc(N2C(=O)/C(=C/c3ccc(N(CCC#N)CCC#N)cc3C)N=C2c2cc([N+](=O)[O-])ccc2Cl)cc1

>  <assay_result>
> 100 µM (inactive)

$$$$

# context switch: different compound, same GI50
Note to self: GI50 recorded for CCOC(=N)CC(=O)Nc1ccccc1CC was > 100 µM (inactive)

----------
- Test system: HCT-116
- experiment_description: NCI tumour cell line growth inhibition, 48 h
Calls of active or inactive are those of the source. No stated cut-off is given here; in the data, active = GI50 up to about 1.1 µM and inactive = higher.
Pick one: 1 for active, 0 for inactive

For orientation, consider the following solved cases.
>  <compound>
CNC(=S)N/N=C(\C)c1cc(OC)ccc1O

>  <system_name>
HCT-116

>  <qualitative_label>
0

$$$$
>  <compound>
C=C1C(=O)OC2/C=C(/C)C(OC(C)=O)C/C=C(\C)C(OC(=O)C3(C)OC3C)C(O)C12 (stereo not given)

>  <system_name>
HCT-116

>  <qualitative_label>
0

$$$$

Answer briefly: the call reported for CC(=O)Oc1ccc2c(c1)C(=O)c1nc(C)c(C)nc1C2=O in this assay.
0

Which result was noted for this compound in the test: CCOC(=O)Cc1nc2ccccc2s1
0

Please state the recorded outcome for this compound: CCN(CC)C(=S)Oc1cc2oc(=O)cc(C)c2cc1Cl
0

Which outcome was entered for the compound Cc1ccc(S(=O)(=O)N/N=C2/CCC(C(C)(C)C)CC2Br)cc1 (stereo not given) in this test?
0

Look up the recorded call for COc1ccc(O)c(C#N)c1C#N in this test.
0

Record request — test call for Cc1cc(S(=O)(=O)Nc2nc3cscc3c(=O)n2N)c(S)cc1Cl
0

Recorded test outcome, item O=CNNC(=O)Nc1ccc(Cl)cc1
0

What outcome does the record of this test show for COC(=O)c1cc(OC)c(OC)c(OC)c1-c1cc2c(cc1C=O)OCO2 ?
0

Just curious, what result did Cc1cc2c(cc1C)[n+]([O-])c(N1CCN(c3ccc([N+](=O)[O-])cc3)CC1)c(C#N)[n+]2[O-] get here?
0

How did this test come out for N#Cc1c(N)nc2c(c1-c1ccc(Br)cc1)CSc1ccccc1-2 ?
0

So what was the verdict on CC[n+]1c(/C=C/c2cc(C(=O)OC)n3c2sc2ccccc23)sc2ccccc21 in this test?
0

State the result this test recorded for COC(=O)[C@]12CSCN1C(=O)C(C(C)=O)=NN2C(=O)[C@](OC)(c1ccccc1)C(F)(F)F .
0

Please share the test call associated with O=C(CC(O)(C(F)(F)F)C(F)(F)F)c1cc(CC(=O)C(O)(C(F)(F)F)C(F)(F)F)cc(CC(=O)C(O)(C(F)(F)F)C(F)(F)F)c1 .
1

Could you check what this test reported for CCNC(C)(C)C(SS)c1ccc(Br)cc1 (stereo not given) ?
0

----------
- Test system: DLD-1
- experiment_description: NCI tumour cell line growth inhibition, 48 h
Activity calls are given as the source filed them. Rule as the data show it: active = GI50 up to about 1.1 µM and inactive = higher.
Form entry, call: pick from active, inactive

>  <compound>
COc1cc(-c2[nH]ccc2Cl)oc1C1=C2N=C3C=C2C(C(C)C)C1CCCCCCCC3 (stereo not given)

>  <qualitative_label>
active

$$$$
>  <compound>
O=C1C2ON3c4ccccc4C(=O)C3(c3ccccc3)C2C(=O)N1c1ccccc1 (stereo not given)

>  <qualitative_label>
inactive

$$$$
>  <compound>
c1ccc(Nc2nnc(CSc3nc(-c4ccccc4)c(-c4ccccc4)[nH]3)s2)cc1

>  <qualitative_label>
inactive

$$$$
>  <compound>
O=C(O)c1cc(Cl)cc(NC(=O)C(Cl)Cl)c1Cl

>  <qualitative_label>
inactive

$$$$

Now consider a different compound.
Hi, do you know how On1c(-c2ccccc2)c(-c2ccccc2N2CCCC2)c2ccccc21 came out in this test?
inactive

----------
- Test system: MDA-N
- experiment_description: NCI tumour cell line growth inhibition, 48 h
Activity calls are given as the source filed them. No stated cut-off is given here; in the data, active = GI50 up to about 1.1 µM and inactive = higher.
measure_name: GI50

These recorded examples may help you get a feel for the data.
>  <compound>
Cc1cc(C)c(N[S+]([O-])c2ccc(Cl)cc2)c(C)c1 (stereo not drawn)

>  <GI50>
71.1 µM (inactive)

$$$$
>  <compound>
Cc1cc2[nH]c3c(C#N)c(-c4ccccc4)c(/C=N/c4cccc(C(F)(F)F)c4)c(=O)n3c2cc1C

>  <GI50>
79.3 µM (inactive)

$$$$

With those in mind, consider the next compound.
// GI50 value for CC1(C)CCCCC1/C=C/C(CC(O)(C(F)(F)F)C(F)(F)F)=N\Nc1ccc([N+](=O)[O-])cc1[N+](=O)[O-] (stereo not drawn) : 2.84 µM (inactive)

----------
- Tested on: UACC-62
- experiment_description: NCI tumour cell line growth inhibition, 48 h
Activity calls are given as the source filed them. No stated cut-off is given here; in the data, active = GI50 up to about 1.1 µM and inactive = higher.
Tick one outcome: active, inactive

>  <molecule>
O=c1c(O)c(-c2ccccc2)n(O)c2ccc(Cl)cc12

>  <system_name>
UACC-62

>  <qualitative_label>
inactive

$$$$
>  <molecule>
CC(C)=CCC/C(C)=C/CC/C(C)=C/CSc1ccccc1C(=O)O

>  <system_name>
UACC-62

>  <qualitative_label>
inactive

$$$$
>  <molecule>
CC(=O)O[C@H]1C(=O)[C@@]2(C)[C@H]([C@H](OC(=O)c3ccco3)[C@]3(O)C[C@H](OC(=O)[C@H](O)[C@@H](NC(=O)c4ccccc4)c4ccccc4)C(C)=C1C3(C)C)[C@]1(OC(C)=O)CO[C@@H]1C[C@@H]2O

>  <system_name>
UACC-62

>  <qualitative_label>
active

$$$$
>  <molecule>
O=[N+]([O-])c1ccc(Cl)c(C2SCc3nc4ccccc4n32)c1 (stereo not drawn)

>  <system_name>
UACC-62

>  <qualitative_label>
inactive

$$$$
>  <molecule>
CC(C)NCC(O)COC(=O)c1cccs1 (stereo not drawn)

>  <system_name>
UACC-62

>  <qualitative_label>
inactive

$$$$

Can you look up the reported call for CC(=O)Nc1ccc(/C=C/C(=O)c2sc(-c3nc(C)c(C(=O)/C=C/c4ccc(NC(C)=O)cc4)s3)nc2C)cc1 for me?
inactive

# fetch the recorded call for CO[C@@]12[C@H](COC(N)=O)C3=C(C(=O)C(C)=C(N)C3=O)N1C[C@H]1[C@@H]2N1C (stereo partly drawn) here
active

State the result this test recorded for O=C1OC(c2ccccc2)N/C1=C\c1ccc2c(c1)OCO2 (stereo not drawn) .
inactive

----------
- Tested on: SF-295
- experiment_description: NCI tumour cell line growth inhibition, 48 h
The source made the active and inactive calls. Cut-off read from the data, not from the text of the source: active = GI50 up to about 1.1 µM and inactive = higher.
measure_name: GI50

So the reported GI50 for COc1ccc(/C=C2\CCC(C)/C(=C\c3ccc(OC)c(OC)c3)C2=O)cc1OC (stereo not given) , on SF-295, turned out to be 5.36 µM (inactive)

----------
- System: OVCAR-3
- experiment_description: NCI tumour cell line growth inhibition, 48 h
Activity calls are given as the source filed them. No stated cut-off is given here; in the data, active = GI50 up to about 1.1 µM and inactive = higher.
Write down one outcome, taken from Yes (active), No (inactive)

Solved cases below.
>  <molecule>
CCCC(CC)c1c(O)c(O)c(C(CC)CCC)c(C(CC)CCC)c1C(CC)CCC (configuration not stated)

>  <qualitative_label>
No

$$$$
>  <molecule>
CCCCc1ccc(Nc2nc(Cl)c3ncn(C4CC(Oc5ccc(C)cc5)C(COc5ccc(C)cc5)O4)c3n2)cc1 (configuration not stated)

>  <qualitative_label>
No

$$$$
>  <molecule>
COC(=O)[C@]12CSCN1C(=O)C(C(C)=O)=NN2C(=O)[C@](OC)(c1ccccc1)C(F)(F)F

>  <qualitative_label>
No

$$$$

Please indicate how the test categorized CC(C)(C)C1=CC(CCC(=O)Nc2ccccc2[N+](=O)[O-])=NC(S)N1 (configuration not stated) .
No

Hey, what did the test say about CC1(C)OC(CCC#N)CN1C(=O)OCc1ccccc1 (configuration not stated) ?
No

GET /call?item= COc1ccc2nc3c(c(NCCCN(C)C)c2c1)CCCC3 returns the recorded outcome of this test.
No

Test call, this molecule: Cc1cc(S(=O)(=O)Nc2nc3cscc3c(=O)n2N)c(S)cc1Cl
No

Look up the recorded call for O=C(COc1ccc(Cl)c(Cl)c1)Nc1ccc[n+](Cc2ccc(S(=O)(=O)F)c(Cl)c2)c1 in this test.
No

----------
- System: U-251
- experiment_description: NCI tumour cell line growth inhibition, 48 h
The source made the active and inactive calls. Cut-off read from the data, not from the text of the source: active = GI50 up to about 1.1 µM and inactive = higher.
Please state which outcome applies, choosing from YES for active, NO for inactive

Consider the worked cases shown below.
>  <compound>
Cc1ccc(N2C(=O)/C(=C/c3ccc(N(CCC#N)CCC#N)cc3C)N=C2c2cc([N+](=O)[O-])ccc2Cl)cc1

>  <system_name>
U-251

>  <qualitative_label>
NO

$$$$
>  <compound>
Cc1c(O)ccc2c(O)c(NC(=O)c3ccc4c(c3)CCC(C)(C)O4)c(=O)oc12

>  <system_name>
U-251

>  <qualitative_label>
NO

$$$$
>  <compound>
COc1cc2c(c(OC)c1OC)-c1ccc(SC)c(=O)cc1C(NC=O)CC2 (stereo unspecified)

>  <system_name>
U-251

>  <qualitative_label>
YES

$$$$
>  <compound>
COC(=O)c1c[nH]cc1CCc1c[nH]cc1C(=O)OC

>  <system_name>
U-251

>  <qualitative_label>
NO

$$$$
>  <compound>
O=C1OC(c2ccc(Cl)cc2)=N/C1=C\c1ccccc1

>  <system_name>
U-251

>  <qualitative_label>
NO

$$$$

Called result for Oc1ccc(/C=N/CC2CCCN3CCCCC23)cc1 (stereo unspecified)
NO

Assay result, entry CC1CC(NC2CCCCC2)=Nc2ccccc2N1Cc1ccccc1 (stereo unspecified) — outcome?
NO

Hi team, can someone confirm the assay call for Cc1cc2nc3n(c2cc1C)C(c1c(F)cccc1F)SC3 (stereo unspecified) ?
NO

Record lookup: outcome of this test for O=C(NC1CCCC1=O)c1ccccc1 (stereo unspecified) ?
NO

Fill in: this test's call for COC1CC(C)([N+](=O)[O-])C(O)C(C)O1 (stereo unspecified) is ___
NO

Returns: the outcome recorded for CCCC(CC)c1c(O)c(O)c(C(CC)CCC)c(C(CC)CCC)c1C(CC)CCC (stereo unspecified) in this assay.
NO

Values from ChEMBL document CHEMBL1201862
